assay.method.text: Ex vivo biodistribution in normal mice
Set-up: species or system ddY mice
assay.context: i.v., 10 min after injection, mean (SD), 5 animals
Overview of reported Biodistribution of radioactivity, Pancreas across a group of molecules:
measured.property: Biodistribution of radioactivity, Pancreas

molecule	value.observed
CN(C)c1ccc(/C=C/c2ccc(C3=N[O][99Tc-]4(=[O])([NH]3)[NH2+]C(c3ccc(/C=C/c5ccc(N(C)C)cc5)cc3)=N[O]4)cc2)cc1 (single isomer, unassigned) [[^99mTc]SB2A]	2.12 (0.08) % injected dose per gram
CN(C)c1ccc(C2=N[O][99Tc-]3(=[O])([NH]2)[NH2+]C(c2ccc4nc(-c5ccc(N(C)C)cc5)sc4c2)=N[O]3)cc1 [[^99mTc]BT1B]	1.58 (0.55) % injected dose per gram
CN(C)c1ccc(/C=C/c2ccc(C3=N[O][99Tc-]4(=[O])([NH]C(c5ccc(N(C)C)cc5)=N[O]4)[NH2+]3)cc2)cc1 (single isomer, unassigned) [[^99mTc]SB1A]	3.09 (0.38) % injected dose per gram
CN(C)c1ccc(-c2nc3ccc(C4=N[O][99Tc-]5(=[O])([NH]4)[NH2+]C(c4ccc6nc(-c7ccc(N(C)C)cc7)sc6c4)=N[O]5)cc3s2)cc1 [[^99mTc]BT2B]	2.19 (0.35) % injected dose per gram

----------
assay.method.text: Ex vivo biodistribution in normal mice
Parameters: species or system ddY mice
assay.context: i.v., 2 min after injection, mean (SD), 5 animals

compound	Biodistribution of radioactivity, Kidney
CN(C)c1ccc(-c2nc3ccc(C4=N[O][99Tc-]5(=[O])([NH]4)[NH2+]C(c4ccc6nc(-c7ccc(N(C)C)cc7)sc6c4)=N[O]5)cc3s2)cc1 [[^99mTc]BT2B]	6.04 (0.96) % injected dose per gram
CN(C)c1ccc(C2=N[O][99Tc-]3(=[O])([NH]2)[NH2+]C(c2ccc4nc(-c5ccc(N(C)C)cc5)sc4c2)=N[O]3)cc1 [[^99mTc]BT1B]	5.94 (0.73) % injected dose per gram
CN(C)c1ccc(/C=C/c2ccc(C3=N[O][99Tc-]4(=[O])([NH]3)[NH2+]C(c3ccc(/C=C/c5ccc(N(C)C)cc5)cc3)=N[O]4)cc2)cc1 (single isomer, unassigned) [[^99mTc]SB2A]	5.03 (0.52) % injected dose per gram
CN(C)c1ccc(/C=C/c2ccc(C3=N[O][99Tc-]4(=[O])([NH]C(c5ccc(N(C)C)cc5)=N[O]4)[NH2+]3)cc2)cc1 (single isomer, unassigned) [[^99mTc]SB1A]	10.74 (2.03) % injected dose per gram

----------
assay.method.text: Ex vivo biodistribution in normal mice
Set-up: species or system ddY mice
assay.context: i.v., 10 min after injection, mean (SD), 5 animals
Known Biodistribution of radioactivity, Lung of a selection of molecules
measured.property: Biodistribution of radioactivity, Lung

molecule	measured.property	value.observed
CN(C)c1ccc(/C=C/c2ccc(C3=N[O][99Tc-]4(=[O])([NH]3)[NH2+]C(c3ccc(/C=C/c5ccc(N(C)C)cc5)cc3)=N[O]4)cc2)cc1 (single isomer, unassigned) [[^99mTc]SB2A]	Biodistribution of radioactivity, Lung	7.79 (0.50) % injected dose per gram
CN(C)c1ccc(-c2nc3ccc(C4=N[O][99Tc-]5(=[O])([NH]4)[NH2+]C(c4ccc6nc(-c7ccc(N(C)C)cc7)sc6c4)=N[O]5)cc3s2)cc1 [[^99mTc]BT2B]	Biodistribution of radioactivity, Lung	11.97 (1.01) % injected dose per gram
CN(C)c1ccc(C2=N[O][99Tc-]3(=[O])([NH]2)[NH2+]C(c2ccc4nc(-c5ccc(N(C)C)cc5)sc4c2)=N[O]3)cc1 [[^99mTc]BT1B]	Biodistribution of radioactivity, Lung	6.50 (1.41) % injected dose per gram
CN(C)c1ccc(/C=C/c2ccc(C3=N[O][99Tc-]4(=[O])([NH]C(c5ccc(N(C)C)cc5)=N[O]4)[NH2+]3)cc2)cc1 (single isomer, unassigned) [[^99mTc]SB1A]	Biodistribution of radioactivity, Lung	9.67 (0.88) % injected dose per gram
